Experiment: UV spectrum (absorption maximum)
Type: physicochemical
Conditions: CHCl3
testReadout: UV spectrum: maximum (nm)
Numbers only, in nm.

// known answers, use as guide
| smilesText | testReadout | numericValue |
| --- | --- | --- |
| COc1ccc(C=CC(=O)N2CCCCC2)cc1 | UV spectrum: maximum | 295 |
| COC(=O)[C@H](CSC)NC(=O)C=Cc1ccc(OC)cc1 | UV spectrum: maximum | 306 |
| COC(=O)[C@H](CS)NC(=O)C=Cc1ccc(OC)cc1 | UV spectrum: maximum | 314 |
| COC(=O)[C@H](Cc1ccc(O)cc1)NC(=O)C=Cc1ccc(OC)cc1 | UV spectrum: maximum | 312 |
| O=C(C=Cc1c[nH]cn1)N1CCCCC1 | UV spectrum: maximum | 285 |
| COC(=O)[C@H](CCSC)NC(=O)C=Cc1ccc(OC)cc1 | UV spectrum: maximum | 309 |
| COC(=O)[C@H](CSSC[C@H](NC(=O)C=Cc1ccc(OC)cc1)C(=O)OC)NC(=O)C=Cc1ccc(OC)cc1 | UV spectrum: maximum | 309 |

Quick note, UV spectrum: maximum for COC(=O)[C@H](CSCc1ccccc1)NC(=O)C=Cc1ccc(OC)cc1 landed at 310
